# Tested on: DLK;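 note: KINOMEscan kinase panel screen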
# Construct: gene MAP3K12
# ASSAY_CONDITIONS: concentration: 1 μM, replicates: in singlicate; n = 1
MEASURED_METRIC: %Inh (%)
Answers are plain numbers, in %.

# annotated cases, reported %Inh shown
COC(=O)Nc1nc2ccc(Oc3ccc(CC(=O)Nc4cc(C(F)(F)F)ccc4F)cc3)cc2[nH]1 [GW680903]	30
O=C(O)C(F)(F)F.O=c1[nH]ccc2nc(N[C@@H]3CCNC3)nc(Nc3ccc4c(c3)S(=O)(=O)CC4)c12 [GSK2181306]	72
Cl.Cl.NCC(NC(=O)c1cc(-c2cccnc2)c(-c2ccnc3[nH]ccc23)s1)c1ccccc1 (centres unmarked) [GSK1323434]	34

Lab note: each molecule below needs its %Inh filled in.
1. O=C(Nc1n[nH]c2cc(-c3cccs3)ccc12)C1CC1 [SB-731284]
2. CN(c1ccc(F)c(NC(=O)c2cccc(OC(C)(C)C#N)c2Cl)c1)c1ccc2nc(NC(=O)C3CC3)sc2n1
3. COc1cccc(CC(=O)N2CCc3cc(-c4cn(C)c5ncnc(N)c45)ccc32)c1 [GSK2608899]

Response given:
1: 26; 2: 2; 3: 36

Lab note: each molecule below needs its %Inh filled in.
1. Cc1ccc(O)cc1Nc1ccnc2ccc(C(C)(C)C)cc12 [GW856805]
2. Cn1cc(-c2ccc3c(c2)CCN3C(=O)Cc2cc(F)cc(F)c2F)c2c(N)ncnc21 [GSK2634140]
3. COC(=O)Nc1nc2cc(Oc3ccc(NC(=O)Nc4cccc(SC)c4)cc3)ccc2[nH]1.Cl [GW697999]
4. Cn1cc(-c2cnc(N)c3c(-c4ccc5c(c4)CCN5C(=O)Cc4ccccc4)csc23)cn1 [GSK2593074]
5. Cl.Cl.NC(CNC(=O)c1cc(Br)c(-c2ccnc3[nH]ccc23)s1)c1ccccc1 (centres unmarked) [GSK1322949]

Response given:
[0, 31, 32, 0, 43]
